# chromatographic logP per entry
Experiment: physchem
Conditions: LogPA (logP of the stated pure compound or, in a mixture, of the main isomer, 1-substituted 3-aryl-1H-pyrazole)

COMPOUND: C#CCn1ccc2c(-c3cn(C4CCCCO4)nc3-c3ccc(F)cc3)ccnc21 (stereo not drawn)
chromatographic logP: 3.47

COMPOUND: O=C1OCCC1n1cc(-c2ccncc2)c(-c2ccc(F)cc2)n1 (stereo not drawn)
chromatographic logP: 0.95

COMPOUND: CC(C)n1cc(-c2ccnc(NC(=O)C3CCC3)c2)c(-c2ccc(F)cc2)n1
chromatographic logP: 2.57

COMPOUND: CC(C)Cn1ncc(-c2ccncc2)c1-c1ccc(F)cc1
chromatographic logP: 1.59

COMPOUND: COCCn1cc(-c2ccnc(NC(=O)COC)c2)c(-c2ccc(F)cc2)n1
chromatographic logP: 2.05

COMPOUND: CC(C)n1cc(-c2ccncc2)c(-c2c(F)cccc2F)n1
chromatographic logP: 1.4

COMPOUND: Fc1ccc(-c2nn(-c3ccc(C(F)(F)F)cn3)cc2-c2ccncc2)cc1
chromatographic logP: 2.64

COMPOUND: Fc1cccc(F)c1-c1c(-c2ccncc2)cnn1C1CCC1
chromatographic logP: 1.49

COMPOUND: Fc1ccc(-c2nn(CCc3ccccc3Cl)cc2-c2ccncc2)cc1
chromatographic logP: 2.04

COMPOUND: CCC(=O)Nc1cc(-c2cn(C(C)C)nc2-c2ccc(F)cc2)ccn1
chromatographic logP: 2.15

COMPOUND: CNC(=O)c1cc(-c2cn(C3CCCCO3)nc2-c2cccc(Cl)c2)ccn1 (stereo not drawn)
chromatographic logP: 3.15

COMPOUND: Fc1ccc(-c2nn(C3CCCCO3)cc2-c2ccnc3ccccc23)cc1 (stereo not drawn)
chromatographic logP: 2.46

FYI, the data here is from patent US20110183978A1.
